So I've got a bunch of compounds here, and I need their Percentage Disease Control, Test F values.
Test system: Botrytis cinerea
ASSAY_PROCEDURE: Test F: tomato Botrytis, preventive spray on tomato seedlings, disease rating
Assay type: in vivo
COND: 200 ppm, 100 = 100% disease control, 0 = no control relative to controls
# value in %; strip the unit string

Prompt: Value lookup for Percentage Disease Control, Test F; key = COC(=O)NCc1cc(-c2ccnc(Cl)n2)ccc1Cl
Completion: 0

Prompt: Value lookup for Percentage Disease Control, Test F; key = COC(=O)NCc1cc(-c2ccnc(-c3ccccc3)n2)ccc1Cl
Completion: 0

Prompt: Value lookup for Percentage Disease Control, Test F; key = COC(=O)NCc1cc(-c2cnn(-c3ccc(Cl)cc3)n2)ccc1Cl
Completion: 61

Prompt: Value lookup for Percentage Disease Control, Test F; key = COC(=O)NCc1cc(-c2cnn(Cc3ccccc3)c2)ccc1Cl
Completion: 0

Prompt: Value lookup for Percentage Disease Control, Test F; key = COC(=O)NCc1cc(-c2ccnc(C3CC3)n2)ccc1Cl
Completion: 0

Prompt: Value lookup for Percentage Disease Control, Test F; key = COC(=O)NCc1cc(-c2ccnc(-c3cccc(C)c3)n2)ccc1Cl
Completion: 0

Prompt: Value lookup for Percentage Disease Control, Test F; key = COC(=O)NCc1cc(-c2ccn(-c3ccc(C(C)=O)cc3)n2)ccc1Cl
Completion: 0

Prompt: Value lookup for Percentage Disease Control, Test F; key = COC(=O)NCc1cc(-c2ccnc(-c3csc(C)n3)n2)ccc1Cl
Completion: 0

Prompt: Value lookup for Percentage Disease Control, Test F; key = COC(=O)NCc1cc(-c2cc(C(F)(F)F)nn2CCC(C)(C)C)ccc1Cl
Completion: 0

----------
Tested on: Erysiphe graminis f. sp. tritici
ASSAY_PROCEDURE: Test A: wheat powdery mildew, preventive spray on wheat seedlings, disease rating
Format: in vivo
COND: 40 ppm (*)
Marks after values point to notes of the source that are not given here.
MEASURED_PROPERTY: Percentage Disease Control, Test A

Prompt: Value lookup for Percentage Disease Control, Test A; key = COC(=O)NCc1cc(-c2ccn(-c3ccc(C)cn3)n2)ccc1Cl
Completion: 65* %

Prompt: Value lookup for Percentage Disease Control, Test A; key = COC(=O)NCc1cc(-c2ccn(-c3ccccc3)n2)ccc1Cl
Completion: 97* %

Prompt: Value lookup for Percentage Disease Control, Test A; key = CCSc1nsc(-n2ccc(-c3ccc(Cl)c(CNC(=O)OC)c3)n2)n1
Completion: 93* %

Prompt: Value lookup for Percentage Disease Control, Test A; key = COC(=O)NCc1cc(-c2ccn(-c3ccccc3Cl)n2)ccc1Cl
Completion: 100* %

Prompt: Value lookup for Percentage Disease Control, Test A; key = COC(=O)NCc1cc(-n2cnc(-c3cccc(C(F)(F)F)c3)n2)ccc1Cl
Completion: 98* %

Prompt: Value lookup for Percentage Disease Control, Test A; key = COC(=O)NCc1cc(-c2ccn(CCCC(c3ccc(F)cc3)c3ccc(F)cc3)n2)ccc1Cl
Completion: 93* %

Prompt: Value lookup for Percentage Disease Control, Test A; key = COC(=O)NCc1cc(-c2ccn(Cc3ccccc3OC(F)(F)F)n2)ccc1Cl
Completion: 99* %

Prompt: Value lookup for Percentage Disease Control, Test A; key = COC(=O)NCc1cc(-c2nn(CCC[Si](C)(C)C)cc2Cl)ccc1Cl
Completion: 98* %

Prompt: Value lookup for Percentage Disease Control, Test A; key = COC(=O)NCc1cc(-c2ccn(-c3ccc(OC(F)(F)F)cc3)n2)ccc1Cl
Completion: 99* %

----------
System: Erysiphe graminis f. sp. tritici
ASSAY_PROCEDURE: Test A: wheat powdery mildew, preventive spray on wheat seedlings, disease rating
Format: in vivo
COND: 40 ppm (*)
Marks after values point to notes of the source that are not given here.
MEASURED_PROPERTY: Percentage Disease Control, Test A

Prompt: Write down the reported Percentage Disease Control, Test A of COC(=O)NCc1cc(-c2ccn(-c3ccc(C)cc3)n2)ccc1Cl , test system: Erysiphe graminis f. sp. tritici.
Completion: 98* %

Prompt: Write down the reported Percentage Disease Control, Test A of COC(=O)NCc1cc(-n2ccc(-c3ccc(Cl)cc3)n2)ccc1Cl , test system: Erysiphe graminis f. sp. tritici.
Completion: 100* %

Prompt: Write down the reported Percentage Disease Control, Test A of COC(=O)NCc1cc(-c2ccn(Cc3ccccc3C(F)(F)F)n2)ccc1Cl , test system: Erysiphe graminis f. sp. tritici.
Completion: 99* %

Prompt: Write down the reported Percentage Disease Control, Test A of COC(=O)NCc1cc(-c2ccn(-c3cccc(C(F)(F)F)n3)n2)ccc1Cl , test system: Erysiphe graminis f. sp. tritici.
Completion: 97* %

Prompt: Write down the reported Percentage Disease Control, Test A of COC(=O)NCc1cc(-c2ccn(CCC#N)n2)ccc1Cl , test system: Erysiphe graminis f. sp. tritici.
Completion: 0* %

Prompt: Write down the reported Percentage Disease Control, Test A of CCCCn1ccc(-c2ccc(Cl)c(CNC(=O)OC)c2)n1 , test system: Erysiphe graminis f. sp. tritici.
Completion: 94* %

Prompt: Write down the reported Percentage Disease Control, Test A of COC(=O)NNc1cc(-c2ccn(-c3cccc(C(F)(F)F)c3)n2)ccc1Cl , test system: Erysiphe graminis f. sp. tritici.
Completion: 99* %

Prompt: Write down the reported Percentage Disease Control, Test A of COC(=O)NCc1cc(-c2ccn(CCOc3ccccc3)n2)ccc1Cl , test system: Erysiphe graminis f. sp. tritici.
Completion: 98* %

Prompt: Write down the reported Percentage Disease Control, Test A of COC(=O)NCc1cc(-c2ccn(-c3nc(C(C)C)ns3)n2)ccc1Cl , test system: Erysiphe graminis f. sp. tritici.
Completion: 100* %

Prompt: Write down the reported Percentage Disease Control, Test A of COC(=O)NCc1cc(-c2ccn(CC(C)Oc3ccccc3)n2)ccc1Cl (racemic) , test system: Erysiphe graminis f. sp. tritici.
Completion: 84* %

Prompt: Write down the reported Percentage Disease Control, Test A of COC(=O)NCc1cc(-c2ccn(Cc3cccc(OC(F)(F)F)c3)n2)ccc1Cl , test system: Erysiphe graminis f. sp. tritici.
Completion: 99* %

Prompt: Write down the reported Percentage Disease Control, Test A of COC(=O)NCc1cc(-c2ccn(Cc3ccc(C)cc3)n2)ccc1Cl , test system: Erysiphe graminis f. sp. tritici.
Completion: 99* %

Prompt: Write down the reported Percentage Disease Control, Test A of COC(=O)NCc1cc(-c2ccn(Cc3cccc(C)c3)n2)ccc1Cl , test system: Erysiphe graminis f. sp. tritici.
Completion: 99* %

Prompt: Write down the reported Percentage Disease Control, Test A of COC(=O)NCc1cc(-c2ccn(Cc3cccc(C#N)c3)n2)ccc1Cl , test system: Erysiphe graminis f. sp. tritici.
Completion: 72* %

Prompt: Write down the reported Percentage Disease Control, Test A of COC(=O)NCc1cc(-c2ccn(Cc3ccc(-c4ccccc4C#N)cc3)n2)ccc1Cl , test system: Erysiphe graminis f. sp. tritici.
Completion: 88* %

Prompt: Write down the reported Percentage Disease Control, Test A of CNC(=O)C(=NOC)c1cc(-c2ccn(-c3cccc(C(F)(F)F)c3)n2)ccc1C , test system: Erysiphe graminis f. sp. tritici.
Completion: 100* %

Prompt: Write down the reported Percentage Disease Control, Test A of COC(=O)NCc1cc(-c2ccn(Cc3cc(C(F)(F)F)ccc3Cl)n2)ccc1Cl , test system: Erysiphe graminis f. sp. tritici.
Completion: 98* %

Prompt: Write down the reported Percentage Disease Control, Test A of COC(=O)NCc1cc(-c2ccn(-c3nc(C4CC4)ns3)n2)ccc1Cl , test system: Erysiphe graminis f. sp. tritici.
Completion: 100* %

Prompt: Write down the reported Percentage Disease Control, Test A of COC(=O)NCc1cc(-c2ccn(-c3cccc(OC(F)(F)F)c3)n2)ccc1Cl , test system: Erysiphe graminis f. sp. tritici.
Completion: 97* %

----------
Tested on: Alternaria solani
ASSAY_PROCEDURE: Test H: tomato early blight, preventive spray on tomato seedlings, disease rating
Assay type: in vivo
COND: 40 ppm (*)
Marks after values point to notes of the source that are not given here.
MEASURED_PROPERTY: Percentage Disease Control, Test H

Prompt: Write down the reported Percentage Disease Control, Test H of COC(=O)NCc1cc(-n2ccc(-c3ccc(Br)cc3)n2)ccc1Cl , test system: Alternaria solani.
Completion: 99* %

Prompt: Write down the reported Percentage Disease Control, Test H of COC(=O)NCc1cc(-c2ccn(-c3ccc(-c4ccccc4)cc3)n2)ccc1Cl , test system: Alternaria solani.
Completion: 7* %

Prompt: Write down the reported Percentage Disease Control, Test H of COC(=O)NCc1cc(-c2ccn(CCC#N)n2)ccc1Cl , test system: Alternaria solani.
Completion: 0* %

Prompt: Write down the reported Percentage Disease Control, Test H of COC(=O)NCc1cc(-c2ccn(-c3cccc(OC(F)(F)F)c3)n2)ccc1Cl , test system: Alternaria solani.
Completion: 86* %

Prompt: Write down the reported Percentage Disease Control, Test H of COC(=O)NCc1cc(-c2ccn(-c3ccc(OC(F)(F)F)cc3)n2)ccc1Cl , test system: Alternaria solani.
Completion: 96* %

These data points were gathered from patent US9198433B2.
